Record form. Attribute: TGI. Fill in for each entry.
- Test system: DU-145 prostate
- assay-procedure: NCI tumour cell line growth inhibition, 48 h

compound: N#C/C(C(=O)Nc1ccccc1)=C(/N)N1CCCC1
TGI: > 100 µM
//
compound: C[n+]1cn(C2=C([O-])c3ccccc3C(=O)/C2=N\S(=O)(=O)c2ccccc2)c2ccccc21
TGI: > 100 µM
//
compound: COc1ccc2c(c1)C(N)=C(c1ccccc1OC)C2=O
TGI: > 100 µM
//
compound: COc1cc(/C=C2/SC(c3ccccc3)N(c3cccc(NC(C)=O)c3)C2=O)cc(OC)c1OC (stereo not given)
TGI: > 100 µM

// moving on: another record for TGI
Any idea what TGI came out for CC(C)/C(Cl)=N\OC(=O)Nc1ccc(F)cc1 on DU-145 prostate? 30.7 µM

* * *

- Test system: MOLT-4 leukemia
- assay-procedure: NCI tumour cell line growth inhibition, 48 h; in the data active means GI50 below about 0.43 µM; inactive means the rest
Respond with a class label; see true = active, false = inactive

molecular-string: CN(C)c1ccc(Nc2ncnc3ccccc23)cc1
assigned-class: false
--
molecular-string: O=C(/C=C/c1cc2ccccc2[nH]c1=O)c1ccc(Cl)cc1
assigned-class: false
--
molecular-string: O=C(Nc1cccc(-n2ccc3c(NC(=O)c4ccccc4)nccc32)c1)Nc1ccc(Cl)c(C(F)(F)F)c1
assigned-class: false
--
molecular-string: CC1(C)CCC2(CC1)N[C@@H](C(=O)N[C@@H]1CC[C@@H](C(N)=O)OC1)[C@H](c1ccnc(Cl)c1F)[C@]21C(=O)Nc2cc(Cl)ccc21
assigned-class: true

// outcome(item) with item = CCCSc1ccc2nc(NC(=O)OC)[nH]c2c1 false

* * *

- Tested on: XF 498 CNS
- assay-procedure: NCI tumour cell line growth inhibition, 48 h
*1 amine or outer side, *2 acyl side, *3 side chain or, on linkers, in order; H or OH if unused. Where a SMILES comes first, the peptide text is derived from it. [ ]: non-standard residue; d: D form. ξ: configuration not given here. Ile(3ξ) = CCC(C)[C@H](N)C(=O)O; X33 = C=CCC(O[*:1])C(=O)[*:2]; NMeV = CN[C@H](C(=O)O)C(C)C; NMeA = CN[C@@H](C)C(=O)O; βAla = NCCC(=O)O
Could you please report measured TGI for the items listed next?

Known TGI results, listed for orientation:
molecule: Sc1ccccc1S
TGI: > 100 µM
//
molecule: CCCCCOc1ccc(C=Nc2ccc(-c3ccc(N=Cc4ccc(OCCCCC)cc4)c(OC)c3)cc2OC)cc1
TGI: > 100 µM
//
molecule: CN(C)c1nc(=Nc2ccc3c(c2)OCO3)ss1
TGI: > 100 µM

Go through the list and state TGI for each entry.
1. O=C1c2ccccc2C(=O)N1C/C=N/NS(=O)(=O)c1ccc(F)cc1
2. C=CCC1OC(=O)CCNC(=O)[C@H](C)N(C)C(=O)[C@H](C(C)C)N(C)C(=O)[C@H](C(C)CC)NC(=O)[C@@H]2CCCN2C1=O (stereo partly specified) (cyclo([Ile(3ξ)][NMeV][NMeA][βAla][X33]P))
3. CC1(C)OC(=O)C(c2cccs2)C(=O)O1

1. > 100 µM
2. 41.8 µM
3. > 100 µM

* * *

Please provide measured GI50 for the entries that follow.
- Tested on: A549 NSCLC
- assay-procedure: NCI tumour cell line growth inhibition, 48 h

compound: CCOC(=O)c1c(NC(=O)COc2cccc3cccnc23)sc(C(=O)N(C)C)c1C
assayed-system: A549 NSCLC
reported-result: 18.5 µM
//
compound: CNC(=O)C(CCc1ccccc1)NC(=O)C(CC(=O)NO)CC(C)C (stereo not drawn)
assayed-system: A549 NSCLC
reported-result: > 25 µM
//
compound: COC(=O)C1=C(OC(=O)c2ccccc2)C(C(=O)OC)[C@]2(O)[C@@H](C(=O)OC)C1CC(c1ccccc1OC)[C@@H]2C(=O)OC (stereo partly drawn)
assayed-system: A549 NSCLC
reported-result: 12.9 µM
//
compound: O=C(/C=C/c1cc2ccccc2[nH]c1=O)c1ccc(Cl)cc1
assayed-system: A549 NSCLC
reported-result: 30.7 µM
//
compound: O=C(NC(=S)Nc1ccccn1)c1ccccc1
assayed-system: A549 NSCLC
reported-result: > 100 µM

Hello, I would appreciate it if you could give GI50 for each entry below.
1. CCOC(=O)/C=C/C1=C(c2ccsc2)c2ccc(OC)cc2CC1
2. Brc1ccc(SCN(CSc2ccc(Br)cc2)Cc2ccccc2)cc1
3. O=C(Nc1cccc(-n2ccc3c(NC(=O)c4ccccc4)nccc32)c1)Nc1ccc(Cl)c(C(F)(F)F)c1

["0.671 µM", "2.41 µM", "0.485 µM"]

Batch lookup, GI50 per entry.
1. CCOC(=O)c1ccc2c(c1)[n+](=O)c(C(=O)C1CCCS1)c(C(F)(F)F)n2[O-] (stereo not drawn)
2. CN(C)c1ccc(Nc2ncnc3ccccc23)cc1
3. CCn1c2ccccc2c2cc(/C=C(/C#N)C(N)=S)ccc21
4. O=C(Nc1ccc(-n2cc(-c3ccncc3)c(-c3ccc(O)c(Cl)c3)n2)cc1)c1cc(C(F)(F)F)cc(C(F)(F)F)c1
5. CCNCCCn1c2c(c3ccc(F)cc3c1=O)C(=O)c1cc(OC)cnc1-2

0.274 µM
> 100 µM
17.5 µM
9.11 µM
0.0643 µM

* * *

- Test system: SK-MEL-2 melanoma
- assay-procedure: NCI tumour cell line growth inhibition, 48 h
endpoint-name: TGI

Field: example entries. Status: answers known.
compound: CC(CCOc1c2ccoc2cc2oc(=O)ccc12)C1=CC(=O)C(C)(C)O1 (stereo unspecified)
endpoint-name: TGI
reported-result: > 100 µM
--
compound: C=C1C(=O)O[C@@H]2O[C@@]3(C)CC[C@H]4[C@H](C)CC[C@@H]1[C@@]24O3
endpoint-name: TGI
reported-result: 46.9 µM
--
compound: O=C1c2scc(-c3ccccc3)c2-n2cccc21
endpoint-name: TGI
reported-result: 30.7 µM
--
compound: O=C1NC2c3c(I)sc(I)c3/C(=N\O)C2O1 (stereo unspecified)
endpoint-name: TGI
reported-result: > 100 µM

Look up TGI for the entries below, preserving their order.
1. CNc1ccc(/C=C2\C=Cc3ccccc32)cc1
2. CC1CN=C(N(Cc2ccc(F)cc2)C(=O)Nc2ccc(Cl)cc2)S1 (stereo unspecified)
3. C[C@]1(O)CC[C@H]2[C@@H]3CCc4cc(O)ccc4[C@H]3CC[C@@]21C
4. Nc1nc2[nH]c(=O)cnc2c(=O)[nH]1
5. O=C1NN=C2C=C(c3ccc(Cl)cc3)CC(c3cccc(Br)c3)C12 (stereo unspecified)
6. N#C/C(C(=O)Nc1ccccc1)=C(/N)N1CCCC1

1: 42 µM; 2: 37.5 µM; 3: > 100 µM; 4: > 125 µM; 5: > 100 µM; 6: > 100 µM

# TGI lookup, item C=CCn1c(SCC(=O)Nc2ccc(C(=O)/C=C/c3cc(OC)c(OC)c(OC)c3)cc2)nnc1-c1ccc(Cl)cc1 36.6 µM

* * *

- Tested on: HT29 colon
- assay-procedure: NCI tumour cell line growth inhibition, 48 h
Hi there, I'd appreciate the recorded TGI for every entry that follows.
Give bare numbers, in µM.

These recorded examples may help you get a feel for the data.
molecular-string: CC1=C(C(=O)OCc2ccncc2)C(C2=C(C)SCCS2)C(C(=O)OCc2ccncc2)=C(C)N1
assayed-system: HT29 colon
TGI [µM]: 40
--
molecular-string: CCCC(=O)N(C(=O)CCC)C1=C(Cl)C(=O)c2ccccc2C1=O
assayed-system: HT29 colon
TGI [µM]: 31.2
--
molecular-string: Cc1c(S(=O)(=O)/N=C(\NN)Nc2ccc(Cl)cc2)sc2ccc(Cl)cc12
assayed-system: HT29 colon
TGI [µM]: 30.7

From here, focus on the item given below.
# input molecule: CCC1=C(C)C(=O)N/C1=C\c1[nH]c(C)c([C@H](C)CCN)c1C ; wanted: its TGI 29.6

* * *

- Tested on: MALME-3M melanoma
- assay-procedure: NCI tumour cell line growth inhibition, 48 h
endpoint-name: log10(TGI) (log10 of the value in µM)
Remember, log10 of TGI, in µM.

molecular-string: N#Cc1c2c(c(Cl)n3c1nc1ccccc13)CCCC2
reported-result: 1.43

molecular-string: CC1(F)C=CC(=O)C=C1
reported-result: 1.84

molecular-string: CC(C)/C(Cl)=N\OC(=O)Nc1ccc(F)cc1
reported-result: 0.59

molecular-string: CC1(C)CCC2(CC1)N[C@@H](C(=O)N[C@@H]1CC[C@@H](C(N)=O)OC1)[C@H](c1ccnc(Cl)c1F)[C@]21C(=O)Nc2cc(Cl)ccc21
reported-result: 0.31

molecular-string: O=C1C(Cl)=C(Nc2cccc(O)c2)C(=O)N1CCc1ccccc1
reported-result: 1.52

Now take the following compound into account.
Looking for the measured log10(TGI) of O=C1c2ccccc2-c2nc(-c3ccncc3)cc3c2c1nc1ccccc13 , can you help? 1.35
